Attribution: BigSolDB 2.1

# conditionsUsed: in acetylacetone, 308.15 K
propertyName: solubility (mole fraction)

Form: compound = `Cc1ccc[n+](CCCC[n+]2cccc(C)c2)c1.F[P-](F)(F)(F)(F)F.F[P-](F)(F)(F)(F)F` ; solubility (mole fraction) = 0.00368

====

# conditionsUsed: in acetylacetone, 323.15 K
propertyName: solubility (mole fraction)

Per the records, this molecule ( `Cc1ccc[n+](CCCC[n+]2cccc(C)c2)c1.F[P-](F)(F)(F)(F)F.F[P-](F)(F)(F)(F)F` ) has solubility (mole fraction) equal to 0.00807

====

# conditionsUsed: in acetylacetone, 288.15 K
propertyName: solubility (mole fraction)
Numbers only.

Briefly, solubility (mole fraction) measured for `Cc1ccc[n+](CCCC[n+]2cccc(C)c2)c1.F[P-](F)(F)(F)(F)F.F[P-](F)(F)(F)(F)F` : 0.00119
